Reference source for all entries: patent US20250360138A1

Assay: Resazurin-based viability assay, HepG2
Assay type: cell-based
Details: human, HepG2 hepatocellular carcinoma cells

{"SMILES REPR": "C=CC(=O)N[C@H]1CN(c2nc(Nc3cn(C)nc3OC)c3ncn(C)c3n2)C[C@@H]1F", "CC50": "> 80 µM"}

* * *

Assay: Mouse pharmacokinetics, plasma concentration by LC-MS/MS
Format: in vivo
Conditions: mouse plasma, single oral 20 mg/kg
Method: Methods for pharmacokinetic studies and analysis of mouse plasma compound concentrations by liquid chromatography with tandem mass spectrometry (LC-MS/MS) have previously been described (Hulverson et al., 2017, J Infect Dis 215:1275-1284; Ojo et al., 2012, J Clin Invest 122:2301-2305; and Schaefer et al., 2016, J Infect Dis 214:1856-1864). The pK studies was performed in groups of 3 mice per compound. […]

{"SMILES REPR": "C=CC(=O)N[C@H]1CN(c2nc(Nc3cn(C)nc3OC)c3ncn(C)c3n2)C[C@@H]1F", "Cmax (µM)": 3.5}

* * *

Experiment: Resazurin-based viability assay, CRL-8155
Type: cell-based
Settings: human, CRL-8155 lymphocytic cells; CRL-8155 cells
READOUT TYPE: CC50

{"SMILES REPR": "C=CC(=O)N[C@H]1CN(c2nc(Nc3cn(C)nc3OC)c3ncn(C)c3n2)C[C@@H]1F", "EXPERIMENTAL RESULT": "> 80 µM"}

* * *

Experiment: Mouse pharmacokinetics, plasma concentration by LC-MS/MS
Assay type: in vivo
Details: plasma; mouse, single oral 20 mg/kg; read-out: average half-life (t1/2)

{"MOLECULE": "C=CC(=O)N[C@H]1CN(c2nc(Nc3cn(C)nc3OC)c3ncn(C)c3n2)C[C@@H]1F [Mavelertinib]", "half-life, h": 2.91}

* * *

Experiment: Mouse pharmacokinetics, plasma concentration by LC-MS/MS
Format: in vivo
Details: in vivo; mouse, single oral 5 mg/kg; read-out: average half-life (t1/2)

{"SMILES REPR": "C=CC(=O)N[C@H]1CN(c2nc(Nc3cn(C)nc3OC)c3ncn(C)c3n2)C[C@@H]1F", "half-life [h]": 3.99}

* * *

Test: Mouse pharmacokinetics, plasma concentration by LC-MS/MS
Assay type: in vivo
Conditions: plasma, oral; mouse, all doses
READOUT TYPE: Tmax

{"COMPOUND": "C=CC(=O)N[C@H]1CN(c2nc(Nc3cn(C)nc3OC)c3ncn(C)c3n2)C[C@@H]1F [Mavelertinib]", "EXPERIMENTAL RESULT": "30 min"}

* * *

Test: Mouse pharmacokinetics, plasma concentration by LC-MS/MS
Assay type: in vivo
Conditions: plasma; mouse, single oral 50 mg/kg; read-out: average half-life (t1/2)

{"MOLECULE": "C=CC(=O)N[C@H]1CN(c2nc(Nc3cn(C)nc3OC)c3ncn(C)c3n2)C[C@@H]1F [Mavelertinib]", "UNIT SPEC": "h", "half-life": 2.09}

* * *

Experiment: Mouse pharmacokinetics, plasma concentration by LC-MS/MS
Assay type: in vivo
Details: mouse plasma, single oral 5 mg/kg
READOUT TYPE: Cmax

{"SMILES REPR": "C=CC(=O)N[C@H]1CN(c2nc(Nc3cn(C)nc3OC)c3ncn(C)c3n2)C[C@@H]1F", "READOUT TYPE": "Cmax", "EXPERIMENTAL RESULT": "630 nM"}
